- PROTOCOL: yeast display, Sf9 membrane polyspecificity reagent, FACS + sequencing; frameworks hold sequencing errors
MEASURED_ATTRIBUTE: polyreactivity (PSR sort gate)

{"columns": ["MACROMOLECULE_SEQUENCE", "polyreactivity (PSR sort gate)"],
 "data": [
  ["QVQLVESGGGLVQAGGSLRLSCAASGLTFDYYAMGWYRQAPGKERELVAAITRRGGGTYYADSVKGRFTISRDNAKNTVYLQMNSLKPEDTAVYYCNADRRSWSALHRYDYWGQGTQVTVSS", "high polyreactivity"],
  ["QVQLVESGGGLVQAGGSLRLSCAASGSIFLYYAMGWYRQAPGKERELVATITKGGGSTYYADSVKGRFTISRDNAKNTVYLQMNSLKPEDTAVYYCAADAAHSEYDYWGQGTLVTVSS", "high polyreactivity"],
  ["QVQLVESGGGLVQAGGSLRLSCAASGRSFSYNAMGWYRQAPGKERELVASISGNGGRTYYADSVKGRFTISRDNAKNTVYLQMNSLKPEDTAVYYCAARYYSWGGVQYDYWGQGTQVTVSS", "high polyreactivity"],
  ["HVQLVESGGGLVQAGGSLRLSCAASGRTFPRYAMGWYRQAPGTERELVAAISVRAGITYYADSVKGRFTISRDNAKNTVYLQMNSLKPEDTAVYYCAKDLWTTSYDEGDYWGQGTQVTVSS", "low polyreactivity"],
  ["QVQLVESGGGLVQAGGSLRLSCAASGYTFPYAMGWYRQAPGKERELVAAISSRGSSTYYADSVKGRFTISRDNAKNTVYLQINSLKPEDTAVYYCAAKHFVKVDYWGQGTQVTVSS", "high polyreactivity"],
  ["QVQLVESGGGLVQAGGSLRLSCAASGSTFYENTMGWYRQAPGKERELVAAISVRGGSTYYADSVKGRFTISRDNEKKTVYLQMNRLKPEDTAVYYCAVLDVYRYRMDYSGQGTQVTVSS", "low polyreactivity"],
  ["QVQLVESGGGLVQAGGSLRLSCAASGLIFGVNAMGWYRQAPGKEMELVAAITSRGGSTYYADSVKGRFTISRDNAKNTVYLQMNSLKPEDTAVYYCAAKYAYYEPYSWRPQRTYNYWGQGTQVTVSS", "high polyreactivity"],
  ["QVQLVESGGGLVQAGGSLRLSCAASGITFYGYAMAWYRQAPGKERELVATITSGGSTYYADSVKGRFTISRDNAKNTVYLQMNSLKPEDTAVYYCAASRWYRRTRYGYWGQGTQVTVSS", "high polyreactivity"]
]}

IN: Fill blank: measured polyreactivity (PSR sort gate) of the sequence QVQLVESGGGLVQAGGSLRLSCAASGRIFYFNAMGWYRQAPGKEWELVAVINSSGSTDYADSVKGRFTISRDNAKNTVYLQMNSLKPEDTAVYYCAAEVTPSGYGYWGQGTQVTVSS is ____.
OUT: low polyreactivity

IN: Fill blank: measured polyreactivity (PSR sort gate) of the sequence QVQLVESGGGLVQAGGSLRLSCAASGSIFDLYDMGWYRQAPGKERELVAAISLIGGSTSYADSVKGRFTISRDNAKNTVYLQMNSLKPEDTAVYYCAVEKFFRAEYDHWGQGTQVTVSS is ____.
OUT: low polyreactivity

IN: Fill blank: measured polyreactivity (PSR sort gate) of the sequence QVQLLESGGGLVQAGGSLRLSCAASGITFLLNAMGWYRQAPGKERELVAAISRSGGRTYYADSVKGRFTISRDNAKNTVYLQMNSLKPEDTAVYYCAVVTQFGDGYYWGQGTQVTVSS is ____.
OUT: high polyreactivity

IN: Fill blank: measured polyreactivity (PSR sort gate) of the sequence QVQLVESGGGLVQAGGSLRLSCAASGFTIHYYVMVWYRQAPGKERELVAAIRRGGSTSYADSVKGRFTISRDNAKNTVYLQMNSLKPEDTAVYYCAASYVSGERYDYWGQGTQVTVSS is ____.
OUT: low polyreactivity

IN: Fill blank: measured polyreactivity (PSR sort gate) of the sequence QVQLVESGGGLVQAGGSLRLSCAASGRTSVPYAMGWYRQAPGKERELVAAITSGGSTYYADSVKGRFTISRDNAKNTVYLQMNSQKPEDTAVYYCAASQPHSAPYTASYGSWGQGTQVTVSS is ____.
OUT: low polyreactivity

This collection of values is drawn from the nanobody polyreactivity screen of Harvey et al. (2022).
